Property: pEC50; scope: individual molecules
targetOfAssay: 5-hydroxytryptamine receptor 2C (Homo sapiens, UniProt P28335)
Sequence (P28335 whole entry): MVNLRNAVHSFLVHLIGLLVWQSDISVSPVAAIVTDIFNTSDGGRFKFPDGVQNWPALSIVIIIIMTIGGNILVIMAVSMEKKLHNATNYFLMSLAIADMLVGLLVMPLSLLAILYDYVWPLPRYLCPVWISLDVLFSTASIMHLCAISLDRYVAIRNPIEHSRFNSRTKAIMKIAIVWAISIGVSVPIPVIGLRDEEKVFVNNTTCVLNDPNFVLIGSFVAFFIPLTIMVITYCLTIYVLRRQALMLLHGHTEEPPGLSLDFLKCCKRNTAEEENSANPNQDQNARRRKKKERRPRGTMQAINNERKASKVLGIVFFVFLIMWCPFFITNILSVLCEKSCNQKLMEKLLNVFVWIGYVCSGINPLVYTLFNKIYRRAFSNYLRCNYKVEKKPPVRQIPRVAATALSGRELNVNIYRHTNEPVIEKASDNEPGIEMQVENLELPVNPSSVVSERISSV
procedureSummary: Agonist activity at human 5HT2C receptor expressed in HEK293 cells assessed as calcium flux by FLIPR assay
Scale for pEC50: -log10 of concentration given in mol/L; no unit attached.

Solved entries (count: 4):
>  <molecule>
NC[C@H]1C[C@@H]1c1ccc(F)cc1F

>  <pEC50>
7.38

$$$$
>  <molecule>
COc1ccc([C@H]2C[C@@H]2CN)cc1 (relative stereo)

>  <pEC50>
6.04

$$$$
>  <molecule>
c1ccc(CNC[C@H]2C[C@@H]2c2ccccc2)cc1 (relative stereo)

>  <pEC50>
5.24

$$$$
>  <molecule>
NC[C@H]1C[C@@H]1c1ccc(Cl)cc1 (relative stereo)

>  <pEC50>
7.12

$$$$

Could you share which pEC50 value was measured for Cc1cccc(Cl)c1[C@H]1C[C@@H]1CN (relative stereo) ?
8.46

Using the record for NC[C@H]1C[C@@H]1c1ccc(F)cc1Cl (relative stereo) , report its pEC50.
8.52

Recorded pEC50 of Cc1ccc([C@H]2C[C@@H]2CN)c(Br)c1 (relative stereo) , please.
7.01

Could you share which pEC50 value was measured for NC[C@H]1C[C@H]1c1ccccc1 (racemic) ?
5.52

Which pEC50 value belongs to NC[C@H]1C[C@@H]1c1cccc(Br)c1 (relative stereo) ?
7.85

I am curious: what pEC50 value has been reported for NC[C@H]1C[C@@H]1c1ccc(Cl)cc1Cl (relative stereo) ?
7.74

Endpoint output: pEC50 of NC[C@H]1C[C@@H]1c1cccc(Cl)c1 (relative stereo) . Value?
8.00

Would you mind telling me what pEC50 value was observed for Cc1cccc([C@H]2C[C@@H]2CN)c1 (relative stereo) ?
8.32

These entries and their values trace back to BindingDB's records for doi:10.1021/jm801354e.
